target.entity: Glucocorticoid receptor of rat thymus (Rattus norvegicus)
Construct: Their thymus was removed and homogenized at 0° C; from tissue; host or cells: 105,000 g supernatant (cytosol) of thymus from adrenalectomized male Sprague-Dawley rats
Sequence (P06536 1-795): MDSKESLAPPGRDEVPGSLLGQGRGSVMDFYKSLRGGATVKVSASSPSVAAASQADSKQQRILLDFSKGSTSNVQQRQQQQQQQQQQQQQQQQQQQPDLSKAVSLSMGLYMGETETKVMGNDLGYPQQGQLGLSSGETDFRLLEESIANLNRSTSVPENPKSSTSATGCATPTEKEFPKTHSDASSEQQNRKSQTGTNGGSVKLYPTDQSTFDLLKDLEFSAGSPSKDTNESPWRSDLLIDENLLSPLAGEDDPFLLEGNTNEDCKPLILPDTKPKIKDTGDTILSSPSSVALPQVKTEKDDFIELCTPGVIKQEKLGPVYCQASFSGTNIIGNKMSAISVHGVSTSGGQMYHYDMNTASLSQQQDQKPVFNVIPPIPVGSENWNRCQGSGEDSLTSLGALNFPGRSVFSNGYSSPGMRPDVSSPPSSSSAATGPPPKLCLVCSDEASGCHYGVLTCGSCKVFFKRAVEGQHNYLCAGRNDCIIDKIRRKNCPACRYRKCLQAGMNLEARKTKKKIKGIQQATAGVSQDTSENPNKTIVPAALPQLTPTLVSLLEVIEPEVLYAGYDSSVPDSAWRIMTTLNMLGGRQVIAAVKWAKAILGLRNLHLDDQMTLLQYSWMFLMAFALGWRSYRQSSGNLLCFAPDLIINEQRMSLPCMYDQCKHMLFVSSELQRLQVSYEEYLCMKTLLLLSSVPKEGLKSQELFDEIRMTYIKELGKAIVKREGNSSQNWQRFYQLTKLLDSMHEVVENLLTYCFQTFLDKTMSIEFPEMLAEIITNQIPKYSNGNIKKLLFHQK
assay.procedure: Glucocorticoid receptor of rat thymus: relative liaison affinity (RLA), displacement of tritiated dexamethasone
Format: binding, Male Sprague-Dawley EOPS rats
applied.conditions: Incubation time 4 H at 0° C.; vs tritiated dexamethasone
Exercise: for every item that follows, state its recorded relative liaison affinity (RLA), Glucocorticoid receptor.
Form rule: numeric answer, no unit written next to it.

The value of relative liaison affinity (RLA), Glucocorticoid receptor measured for the compound `C=C(C)C[C@]12CCC(=O)C=C1CC[C@@H]1C2=CC[C@@]2(C)[C@H]1CC[C@@]2(O)C#CC` turned out to be 226

// sample `CC#C[C@]1(O)CC[C@H]2[C@@H]3CCC4=CC(=O)CC[C@]4(Sc4ccc(OC)cc4)C3=CC[C@@]21C` , its relative liaison affinity (RLA), Glucocorticoid receptor was 218

Measured relative liaison affinity (RLA), Glucocorticoid receptor of `CC#C[C@]1(O)CC[C@H]2[C@@H]3CCC4=CC(=O)CC[C@]4(Cc4ccccc4)C3=CC[C@@]21C` : 160

Value of measured relative liaison affinity (RLA), Glucocorticoid receptor for the entry `CC#C[C@]1(O)CC[C@H]2[C@@H]3CCC4=CC(=O)CC[C@]4(Cc4ccccc4F)C3=CC[C@@]21C` : 136

====

target.entity: Progestogen receptor of rabbit uterus (Oryctolagus cuniculus, UniProt P06186)
Construct: Their uterus were removed, weighed and homogenized at 0° C; from tissue; host or cells: 105,000 g supernatant (cytosol) of uterus from estradiol-treated impuberal rabbits
Sequence (P06186 whole entry): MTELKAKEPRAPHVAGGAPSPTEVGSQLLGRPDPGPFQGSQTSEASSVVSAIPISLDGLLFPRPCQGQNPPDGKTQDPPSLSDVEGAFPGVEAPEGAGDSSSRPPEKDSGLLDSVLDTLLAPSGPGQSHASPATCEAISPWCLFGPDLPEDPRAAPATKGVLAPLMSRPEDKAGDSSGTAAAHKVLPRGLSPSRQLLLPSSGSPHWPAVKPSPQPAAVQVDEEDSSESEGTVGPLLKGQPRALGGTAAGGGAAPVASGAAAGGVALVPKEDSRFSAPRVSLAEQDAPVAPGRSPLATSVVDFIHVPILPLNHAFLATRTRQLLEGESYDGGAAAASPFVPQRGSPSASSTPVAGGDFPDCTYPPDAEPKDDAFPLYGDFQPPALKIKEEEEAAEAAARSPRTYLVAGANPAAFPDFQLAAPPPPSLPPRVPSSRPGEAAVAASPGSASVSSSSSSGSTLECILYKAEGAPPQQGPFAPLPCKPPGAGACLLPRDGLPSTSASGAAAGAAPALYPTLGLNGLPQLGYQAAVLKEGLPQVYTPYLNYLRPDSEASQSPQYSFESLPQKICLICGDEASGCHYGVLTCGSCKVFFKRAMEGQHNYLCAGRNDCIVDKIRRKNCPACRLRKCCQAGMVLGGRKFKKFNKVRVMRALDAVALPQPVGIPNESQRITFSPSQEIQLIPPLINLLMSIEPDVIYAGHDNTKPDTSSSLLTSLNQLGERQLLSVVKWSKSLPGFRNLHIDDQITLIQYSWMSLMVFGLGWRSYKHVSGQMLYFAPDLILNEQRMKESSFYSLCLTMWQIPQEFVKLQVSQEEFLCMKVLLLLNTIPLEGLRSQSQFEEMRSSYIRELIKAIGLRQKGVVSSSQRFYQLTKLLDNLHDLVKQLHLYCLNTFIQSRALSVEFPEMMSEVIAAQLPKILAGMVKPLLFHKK
assay.procedure: Progestogen receptor of rabbit uterus: relative liaison affinity (RLA), displacement of tritiated Product R
Format: binding
applied.conditions: Incubation time 2 H at 0° C.; vs tritiated Product R
outcome.measure: relative liaison affinity (RLA), Progestogen receptor
Answer with the value's number alone.

response.value for `C=C(C)C[C@]12CCC(=O)C=C1CC[C@@H]1C2=CC[C@@]2(C)[C@H]1CC[C@@]2(O)C#CC` (field: relative liaison affinity (RLA), Progestogen receptor) = 0.4

Looking up `CC#C[C@]1(O)CC[C@H]2[C@@H]3CCC4=CC(=O)CC[C@]4(Cc4ccccc4)C3=CC[C@@]21C` , I found its relative liaison affinity (RLA), Progestogen receptor recorded as 0.1

Measured relative liaison affinity (RLA), Progestogen receptor of `CC#C[C@]1(O)CC[C@H]2[C@@H]3CCC4=CC(=O)CC[C@]4(Sc4ccc(OC)cc4)C3=CC[C@@]21C` : 0.9

Query `CC#C[C@]1(O)CC[C@H]2[C@@H]3CCC4=CC(=O)CC[C@]4(Cc4ccccc4F)C3=CC[C@@]21C` yields relative liaison affinity (RLA), Progestogen receptor of 0.1
